Data provenance is patent US20250270445A1.

RUN_DESCRIPTION: Solubility of compounds in toluene
Assay type: physicochemical
ASSAY_ENDPOINT: Solubilities(/100 g, toluene)

- Cc1cccc(C)c1N(c1ccc(C(C)(C)C)cc1)c1cc(N(c2ccc(C(C)(C)C)cc2)c2c(C)cccc2C)c2ccc3c(N(c4ccc(C(C)(C)C)cc4)c4c(C)cccc4C)cc(N(c4ccc(C(C)(C)C)cc4)c4c(C)cccc4C)c4ccc1c2c43 [compound 3]: 4.2 g/100 g toluene
- CCCCCCCCc1ccc(N(c2ccc(C(C)C)cc2-c2cc(F)c(F)c(F)c2)c2cc(N(c3ccc(CCCCCCCC)cc3)c3ccc(C(C)C)cc3-c3cc(F)c(F)c(F)c3)c3ccc4c(N(c5ccc(CCCCCCCC)cc5)c5ccc(C(C)C)cc5-c5cc(F)c(F)c(F)c5)cc(N(c5ccc(CCCCCCCC)cc5)c5ccc(C(C)C)cc5-c5cc(F)c(F)c(F)c5)c5ccc2c3c54)cc1 [compound 20]: >10 g/100 g toluene
- CC(C)c1cccc(C(C)C)c1N(c1cc(C(C)(C)C)cc(C(C)(C)C)c1)c1cc(N(c2cc(C(C)(C)C)cc(C(C)(C)C)c2)c2c(C(C)C)cccc2C(C)C)c2ccc3c(N(c4cc(C(C)(C)C)cc(C(C)(C)C)c4)c4c(C(C)C)cccc4C(C)C)cc(N(c4cc(C(C)(C)C)cc(C(C)(C)C)c4)c4c(C(C)C)cccc4C(C)C)c4ccc1c2c43 [compound 7]: >20 g/100 g toluene
- Cc1cccc(C)c1N(c1ccccc1)c1cc(N(c2ccccc2)c2c(C)cccc2C)c2ccc3c(N(c4ccccc4)c4c(C)cccc4C)cc(N(c4ccccc4)c4c(C)cccc4C)c4ccc1c2c43 [compound 1]: 1.5 g/100 g toluene
- CC(C)c1ccc(-c2cc(-c3cc(C(C)(C)C)cc(C(C)(C)C)c3)ccc2N(c2cc(F)c(F)c(F)c2)c2cc(N(c3cc(F)c(F)c(F)c3)c3ccc(-c4cc(C(C)(C)C)cc(C(C)(C)C)c4)cc3-c3ccc(C(C)C)cc3)c3ccc4c(N(c5cc(F)c(F)c(F)c5)c5ccc(-c6cc(C(C)(C)C)cc(C(C)(C)C)c6)cc5-c5ccc(C(C)C)cc5)cc(N(c5cc(F)c(F)c(F)c5)c5ccc(-c6cc(C(C)(C)C)cc(C(C)(C)C)c6)cc5-c5ccc(C(C)C)cc5)c5ccc2c3c54)cc1 [compound 14]: >5 g/100 g toluene
- CC1CCC(C(C)C)C(Oc2ccc(-c3cc(C(C)C)ccc3N(c3cc(F)c(F)c(F)c3)c3cc(N(c4cc(F)c(F)c(F)c4)c4ccc(C(C)C)cc4-c4ccc(OC5CC(C)CCC5C(C)C)cc4)c4ccc5c(N(c6cc(F)c(F)c(F)c6)c6ccc(C(C)C)cc6-c6ccc(OC7CC(C)CCC7C(C)C)cc6)cc(N(c6cc(F)c(F)c(F)c6)c6ccc(C(C)C)cc6-c6ccc(OC7CC(C)CCC7C(C)C)cc6)c6ccc3c4c65)cc2)C1 (stereo not drawn) [compound 15]: >10 g/100 g toluene
